# credit: patent US20070066636A1

- method: Solubility estimates in different solvents
- Assay type: physicochemical
- conditionInfo: organic solvent or mixture, thermodynamic from solid; dimethylformamide, ambient temperature, visual estimate
valueKind: solubility

[in] For N#Cc1ccccc1Cn1c(N2CCC[C@@H](N)C2)ncc(F)c1=O [Form A] , what is its reported solubility?
[out] ≥ 81 mg/mL

---

- method: Solubility estimates in different solvents
- Assay type: physicochemical
- conditionInfo: organic solvent or mixture, thermodynamic from solid; trifluoroethanol, ambient temperature, visual estimate
valueKind: solubility

[in] For N#Cc1ccccc1Cn1c(N2CCC[C@@H](N)C2)ncc(F)c1=O [Form A] , what is its reported solubility?
[out] ≥ 81 mg/mL

---

- method: Solubility estimates in different solvents
- Type: physicochemical
- conditionInfo: organic solvent or mixture, thermodynamic from solid; acetone, ambient temperature, visual estimate
valueKind: solubility

[in] For N#Cc1ccccc1Cn1c(N2CCC[C@@H](N)C2)ncc(F)c1=O [Form A] , what is its reported solubility?
[out] < 4000 µg/mL

---

- method: Solubility estimates in different solvents
- Assay type: physicochemical
- conditionInfo: organic solvent or mixture, thermodynamic from solid; methyl ethyl ketone, ambient temperature, visual estimate
valueKind: solubility

[in] For N#Cc1ccccc1Cn1c(N2CCC[C@@H](N)C2)ncc(F)c1=O [Form A] , what is its reported solubility?
[out] < 3000 µg/mL

---

As shown below, each of these compounds has a reported weight gain between 5% and 95% RH value.
- method: Moisture sorption/desorption analysis
- Assay type: physicochemical
- conditionInfo: moisture sorption/desorption
API: value field is a number in %; no unit string.

Please review the entries below; each comes with its answer.
N#Cc1ccccc1Cn1c(N2CCC[C@@H](N)C2)ncc(F)c1=O [Form E] :: 9.2
N#Cc1ccccc1Cn1c(N2CCC[C@@H](N)C2)ncc(F)c1=O [Form B] :: 6.6
N#Cc1ccccc1Cn1c(N2CCC[C@@H](N)C2)ncc(F)c1=O [amorphous Form 1] :: 5.8

API: the following record is the query input.
[in] For N#Cc1ccccc1Cn1c(N2CCC[C@@H](N)C2)ncc(F)c1=O [Form C] , what is its reported weight gain between 5% and 95% RH?
[out] 5.7

---

As shown below, each of these compounds has a reported Weight Change value.
- method: Moisture sorption/desorption analysis
- Type: physicochemical
- conditionInfo: after sorption at about 95% RH, 25 C; Tables 2C-2F (values fit change relative to initial weight)
- Protocol: Moisture sorption/desorption data were collected on a VTI SGA-100 Vapor Sorption Analyzer. Sorption and desorption data were collected over a range of 5% to 95% relative humidity (RH) at 10% RH intervals under a nitrogen purge. […] However, the weight gain data provided in the tables for the various relative humidity ranges are calculated using the sample weight at the beginning of the particular RH event as the initial weight. […]

Please review the entries below; each comes with its answer.
N#Cc1ccccc1Cn1c(N2CCC[C@@H](N)C2)ncc(F)c1=O [Form E] :: 8.801%
N#Cc1ccccc1Cn1c(N2CCC[C@@H](N)C2)ncc(F)c1=O [amorphous Form 2] :: 6.013%
N#Cc1ccccc1Cn1c(N2CCC[C@@H](N)C2)ncc(F)c1=O [Form C] :: 4.744%

API: the following record is the query input.
[in] For N#Cc1ccccc1Cn1c(N2CCC[C@@H](N)C2)ncc(F)c1=O [amorphous Form 1] , what is its reported Weight Change?
[out] 13.393%

---

- method: Solubility estimates in different solvents
- Type: physicochemical
- conditionInfo: organic solvent or mixture, thermodynamic from solid; isopropanol, ambient temperature, visual estimate
valueKind: solubility

[in] For N#Cc1ccccc1Cn1c(N2CCC[C@@H](N)C2)ncc(F)c1=O [Form A] , what is its reported solubility?
[out] < 3000 µg/mL

---

- method: Solubility estimates in different solvents
- Format: physicochemical
- conditionInfo: organic solvent or mixture, thermodynamic from solid; chloroform, ambient temperature, visual estimate
valueKind: solubility

[in] For N#Cc1ccccc1Cn1c(N2CCC[C@@H](N)C2)ncc(F)c1=O [Form A] , what is its reported solubility?
[out] < 4000 µg/mL

---

- method: Solubility estimates in different solvents
- Format: physicochemical
- conditionInfo: organic solvent or mixture, thermodynamic from solid; hexafluoroisopropanol, ambient temperature, visual estimate
valueKind: solubility

[in] For N#Cc1ccccc1Cn1c(N2CCC[C@@H](N)C2)ncc(F)c1=O [Form A] , what is its reported solubility?
[out] ≥ 80 mg/mL

---

- method: Solubility estimates in different solvents
- Assay type: physicochemical
- conditionInfo: organic solvent or mixture, thermodynamic from solid; toluene, ambient temperature, visual estimate
valueKind: solubility

[in] For N#Cc1ccccc1Cn1c(N2CCC[C@@H](N)C2)ncc(F)c1=O [Form A] , what is its reported solubility?
[out] < 3000 µg/mL
